Data provenance is patent US20130224224A1.

% block values by entry
assayed_system: T1, human CX3CR1 (human, UniProt P49238 1-355)
T1 construct: overexpressed on CHO, BA/F3 or HEK293T cells; also called huCX3CR1; hCX3CR1
T1 sequence: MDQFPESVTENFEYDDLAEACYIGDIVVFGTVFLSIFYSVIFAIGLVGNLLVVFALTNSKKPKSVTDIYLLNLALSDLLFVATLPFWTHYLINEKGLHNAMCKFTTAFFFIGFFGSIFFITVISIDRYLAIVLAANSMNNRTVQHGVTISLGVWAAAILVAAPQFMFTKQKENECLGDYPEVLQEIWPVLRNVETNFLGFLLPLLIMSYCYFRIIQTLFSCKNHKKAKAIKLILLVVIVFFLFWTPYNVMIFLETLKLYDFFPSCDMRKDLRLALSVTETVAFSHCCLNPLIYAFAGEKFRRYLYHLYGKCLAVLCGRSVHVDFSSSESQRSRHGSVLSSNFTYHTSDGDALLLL
procedure_details: A647-fractalkine competition FACS, HEK293T human CX3CR1
Field: numeric (%). Do not append units.

Solved cases below.
1) CX3CR1BII020 (VHH, expressed in E. coli as described for the monovalent VHHs) EVQLVESGGGSVQAGESLRLSCAASGSIFSSNAMAWYRQAPGKQRDLVAGINSVGITKYADSVKGRFTISRDNAKNTAYLQMNSLKPEDTAVYYCTSDPRRGWDTRYWGQGTLVTVSSGGGGSGGGGSGGGGSGGGGSGGGGSGGGGSGGGGSEVQLVESGGGSVQAGESLRLSCAASGSIFSSNAMAWYRQAPGKQRDLVAGINSVGITKYADSVKGRFTISRDNAKNTAYLQMNSLKPEDTAVYYCTSDPRRGWDTRYWGQGTLVTVSS; 102
2) CX3CR1BII017 (VHH, expressed in E. coli as described for the monovalent VHHs) EVQLVESGGGSVQAGESLRLSCAASGSIFSSNAMAWYRQAPPGKQRDLVALINSVGITKYADSVKGRFTISSDNAKNTVYLEMNSLKPEDTAVYYCTSDGRRGWDTRYWGQGTQVTVSSGGGGSGGGGSGGGGSGGGGSGGGGSGGGGSGGGGSEVQLVESGGGSVQAGESLRLSCAASGSIFSSNAMAWYRQAPPGKQRDLVALINSVGITKYADSVKGRFTISSDNAKNTVYLEMNSLKPEDTAVYYCTSDGRRGWDTRYWGQGTQVTVSS; 99

Noted for CX3CR1BII019 (VHH, expressed in E. coli as described for the monovalent VHHs) EMQLVESGGGSVQAGESLRLSCAASGSIFSSNAMAWYRQAPGKQRDLVALINSVGITKYADSVKGRFTISRDNAKNTVYLQMNSLKPEDTAVYYCTSDGRRGWDTRYWGQGTQVTVSSGGGGSGGGGSGGGGSGGGGSGGGGSGGGGSGGGGSEMQLVESGGGSVQAGESLRLSCAASGSIFSSNAMAWYRQAPGKQRDLVALINSVGITKYADSVKGRFTISRDNAKNTVYLQMNSLKPEDTAVYYCTSDGRRGWDTRYWGQGTQVTVSS : its % block reads 100

% block measured on CX3CR1BII018 (VHH, A647 label where used as labeled competitor (Example 14), expressed in E. coli as described for the monovalent VHHs; also called A647-018; A647 labeled CX3CR1BII018) EVQLVESGGGSVQAGESLRLSCAASGSIFSSNAMAWYRQAPGKRRDLVAAINSVGVTKYADSVKGRFTISRDNAKNTVYLQMNSLKPEDTAVYYCTSDPRRGWDTRYWGQGTQVTVSSGGGGSGGGGSGGGGSGGGGSGGGGSGGGGSGGGGSEVQLVESGGGSVQAGESLRLSCAASGSIFSSNAMAWYRQAPGKRRDLVAAINSVGVTKYADSVKGRFTISRDNAKNTVYLQMNSLKPEDTAVYYCTSDPRRGWDTRYWGQGTQVTVSS = 102

Sure, the documented % block for CX3CR1BII016 (VHH, expressed in E. coli as described for the monovalent VHHs) EVQLVESGGGSVQAGESLRLSCAASGSIFSSNAMAWYRQAPGKQRDLVAVINSVGITKYADSVKGRFTISGDNAKNTVYLQMNSLKPEDTAVYYCTSDARRGWDTRYWGQGTQVTVSSGGGGSGGGGSGGGGSGGGGSGGGGSGGGGSGGGGSEVQLVESGGGSVQAGESLRLSCAASGSIFSSNAMAWYRQAPGKQRDLVAVINSVGITKYADSVKGRFTISGDNAKNTVYLQMNSLKPEDTAVYYCTSDARRGWDTRYWGQGTQVTVSS is 102
